Listing: IC50 of selected compounds
- System: HIV
- MEASUREMENT PROTOCOL: MT4 assay (anti-HIV activity)
- Format: cell-based
- CONDITION CONTEXT: HTLV-1 transformed cell line MT-4; luciferase activity measured 96 hours later (cell titer glo); 10 point dose response
Express the result in nM but write the number alone.

Solved entries (count: 3):
[[record]]
compound = "Cc1ccc(-c2c([C@H](OC(C)(C)C)C(=O)O)c(C(F)(F)F)c3c(c2C(F)(F)F)CN(C(=O)OCc2ccccc2)C3)cc1"
display_unit = "nM"
observed = 4400

[[record]]
compound = "Cc1ccc(-c2c([C@H](OC(C)(C)C)C(=O)O)c(C(F)(F)F)c3c(c2C(F)(F)F)CN(C(=O)c2cccc(F)c2)C3)cc1"
display_unit = "nM"
observed = 5

[[record]]
compound = "CCO[C@H](C(=O)O)c1c(C)c2c(c(C)c1-c1cc(F)c3c(c1C)CCCO3)CN(C(=O)c1cccc(F)c1)C2 (atropisomer, axis not shown; (M))"
display_unit = "nM"
observed = 145


With those in mind, consider the next compound.
Answer with reported IC50 of Cc1c(-c2c([C@H](OC(C)(C)C)C(=O)O)c(C(F)(F)F)c3c(c2C(F)(F)F)CN(C(=O)c2cccc(F)c2)C3)cc(F)c2c1CCCO2 (atropisomer, axis not shown; (M))
4

Where these numbers come from: patent US20180334453A1
